experimental target: Amine oxidase [flavin-containing] A (Rattus norvegicus, UniProt P21396)
Sequence (P21396 whole entry): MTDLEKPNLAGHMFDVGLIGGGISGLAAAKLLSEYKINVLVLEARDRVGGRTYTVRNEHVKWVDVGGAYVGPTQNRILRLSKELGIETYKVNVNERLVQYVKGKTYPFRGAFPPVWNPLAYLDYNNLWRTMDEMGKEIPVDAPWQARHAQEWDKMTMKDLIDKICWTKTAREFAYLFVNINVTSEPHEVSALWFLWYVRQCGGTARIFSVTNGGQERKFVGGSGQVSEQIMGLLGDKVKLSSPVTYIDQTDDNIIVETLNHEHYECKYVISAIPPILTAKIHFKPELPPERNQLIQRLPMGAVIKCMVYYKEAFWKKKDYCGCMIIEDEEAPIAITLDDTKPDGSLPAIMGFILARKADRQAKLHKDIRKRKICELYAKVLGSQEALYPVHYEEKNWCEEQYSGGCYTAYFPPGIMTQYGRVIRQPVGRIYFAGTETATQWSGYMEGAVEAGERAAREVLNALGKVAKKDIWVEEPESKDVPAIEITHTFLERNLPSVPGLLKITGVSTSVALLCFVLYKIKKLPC
assay notes: Inhibition of MAOA in rat brain mitochondria
outcome measure: log10 Ki (log10 of the value in µM)
Could you please treat all values as log10 of Ki in µM?

Examples with their reported log10 Ki follow.
CCCCOc1ccc(CC(C)N)cc1 (configuration not stated)	-0.49
CCCOc1ccc(CC(C)N)cc1 (configuration not stated)	-0.89
COc1ccc2cc(CC(C)NCc3ccccc3)ccc2c1 (configuration not stated)	0.84

Looking up CCCCOc1ccc2cc(CC(C)NCc3ccccc3)ccc2c1 (configuration not stated) , I found its log10 Ki recorded as 1.16

Looking up CC(N)Cc1ccc(OCc2ccccc2)cc1 (configuration not stated) , I found its log10 Ki recorded as 0.53

Looking up CCCOc1ccc2cc(CC(C)N)ccc2c1 (configuration not stated) , I found its log10 Ki recorded as -0.17
